# system_under_test: ScMyo5
# experiment_description: SPOT peptide array binding signal intensity (averaged, normalized) (arbitrary units (background-subtracted, floor 0; scale differs between SH3 domains)); higher = stronger binding of the SH3 domain to the peptide
readout_name: SPOT peptide array binding signal intensity

binder: RAPPPVPKKPSSRIA
value_observed: 50.2
--
binder: LPMNIQPDLPPRKIM
value_observed: 0.75
--
binder: RRASLFPRDPKRLRP
value_observed: 2
--
binder: KNRKNLPTIPIRLSG
value_observed: 1

These measurements were taken from the supplement of paper PMC4466140.
